- System: SN12C
- protocol description: NCI tumour cell line growth inhibition, 48 h
Counter-ions that a name gives are not always drawn. Active and inactive are the calls of the source. No stated cut-off is given here; in the data, active = GI50 up to about 1.1 µM and inactive = higher.
Labels: active, inactive

                                    molecule  group_label
 0  CC(CO)CCNc1ncnc2c1ncn2CCC(=O)O (configuration not stated)     inactive
 1  c1ccc2c[n+](CCCC[n+]3ccc4ccccc4c3)ccc2c1     inactive
 2  CC1=CP(=O)(OC(C)C)CC(C)=C1Cl (configuration not stated)     inactive
 3  O=C1N(CN2CCOCC2)CN(CN2CCOCC2)C(=O)N1Cc1ccccc1     inactive
 4  CC(C)(C)OC(=O)NC(Cc1ccc(OCc2ccccc2)cn1)C(=O)NCc1ccccc1 (configuration not stated)     inactive
 5    O=C1C(Cl)=C(OCCCl)C(=O)c2c(O)ccc(O)c21     inactive
 6    Nc1ccc2nc3ccc(N)cc3[n+](-c3ccccc3)c2c1     inactive
 7  CCOC(=O)c1csc(-c2nc(CCNC(=O)c3ccccc3)sc2Cl)n1     inactive
 8  CC(CC[C@@H](C)C1CCC2[C@@H]3CC(O)C4CC(O)[C@@H](O)C[C@]4(C)C3CC[C@@]21C)C(C)(C)C (some centres not stated)     inactive
 9             COc1ccc2nc(-c3ccc(O)cc3)sc2c1     inactive
10  CC12CCC3C(CCC4(O)C=CCCC34C=O)C1(O)CC(O)C2c1ccc(=O)oc1 (configuration not stated)       active
11   COc1ccc2cccc(C(=O)c3ccc(C)c4c3CCC4)c2c1     inactive
12  CCN(CC)CCn1ncc2c3c(=O)c4cccnc4n(CCN(CC)CC)c3ccc21     inactive
13  CCOC(=O)C1C[C@H]2CO[C@H](c3ccccc3)N2C1=O (some centres not stated)     inactive
14  O=C(CSc1nc2ccc([N+](=O)[O-])cc2s1)c1ccc2ccccc2c1     inactive
15                       CC(=O)N1N=C(N)CC1=O     inactive
16  CS(=O)(=O)OCCN(CCOS(C)(=O)=O)c1ccc(/C=N/c2ccc(-c3csc(COc4ccccc4)n3)cc2)cc1     inactive
17              CC1(C)OC(C(N)=O)=C(C(N)=O)O1     inactive
18     O=[N+]([O-])/C=C1\COCc2cc3c(cc21)OCO3     inactive
19  C=C(c1ccccc1)[C@@]1(O)CCCC[C@H]1NC(c1ccccc1)c1ccccc1     inactive
20  COc1ccc(/C=C2\C[C@H]3[C@@H]4CC=C5C[C@@H](OC(C)=O)CC[C@]5(C)[C@H]4CC[C@]3(C)C2=O)cc1OC     inactive
21  COC(=O)c1ccccc1C1CN=NC12Cc1c(C)cc(C)cc1C2=O (configuration not stated)     inactive
22                     CSC(SC)=C1C(=O)NN=C1C     inactive
23      O=Cc1c2ccccc2n2ccc3c4ccccc4[nH]c3c12     inactive
24  CN(C)CCNc1c([N+](=O)[O-])cc2c3c(cccc13)C(=O)N(CCN(C)C)C2=O     inactive
25  Cc1ccc2c(=O)c(C(=O)NNC(=S)NC3CCCCC3)c[nH]c2n1     inactive
26  CCN(CC)CCCNc1nccc2c(C)c3[nH]c4ccncc4c(=O)c3cc12     inactive
27  COC(=O)C1=C(C(=O)OC)SC(=C(/N=N/c2ccccc2)c2ccccc2)S1     inactive
28  Cc1c(C2=NN=C(/N=N/c3c(O)cccc3O)/C2=C/c2ccccc2)c(=O)n(-c2ccccc2)n1C     inactive
29         COc1cc(/C=C2\CCc3ccccc3C2=O)ccc1O     inactive
30  CC1CCCP(=O)(c2ccccc2)CC1 (configuration not stated)     inactive
31  Cc1ccccc1NC(=O)/C(=N/NC(=O)CC#N)C1C(=O)N(c2ccccc2)N=C1N (configuration not stated)     inactive
32  O=C1c2c(O)cccc2-c2nn(CCNCCO)c3ccc(NCCNCCO)c1c23 [LOSOXANTRONE HYDROCHLORIDE]       active
33  COc1ccc(/C=N/Nc2nc(C)c3c(n2)Nc2ccccc2NC3=O)cc1     inactive
34  COc1cc2c[n+](C)c3c(c2cc1OC)Cc1cc2c(cc1-3)OCO2     inactive
35  COc1cc(/C=C2\CCC(C)C3=C2NC(=S)NC3c2cc(OC)c(OC)c(OC)c2)cc(OC)c1OC (configuration not stated)     inactive
36  COc1cc(/C=C2\[C@@H]3NC(Cc4c(OC)c(C)c(OC)c(OC)c43)C(=O)N2Cc2ccccc2)c(OC)c(C)c1OC     inactive
37  COC(=O)C1(C)CC2C(C)(CCC3(C)C4=CC=C5C(=CC(=O)C(O)=C5C)C4(C)CCC23C)CC1O (configuration not stated)     inactive
38  COc1cc(C2c3cc4c(cc3OC(NCCO)C2C)OCO4)cc(OC)c1OC (configuration not stated)       active
39  CC1SC(c2ccccc2)N(Nc2c3ccccc3nc3ccccc23)C1=O (configuration not stated)     inactive
40         CC(C)(C)c1ccc(O)c(C[N+](C)(C)C)c1     inactive
41         O=[N+]([O-])c1cccc2nccc(NCCCO)c12     inactive

These entries and their values trace back to ChEMBL document CHEMBL1201862.
